# testedOn: human JAK2 (Homo sapiens, UniProt O60674)
# Sequence (O60674 849-1124 limits assumed): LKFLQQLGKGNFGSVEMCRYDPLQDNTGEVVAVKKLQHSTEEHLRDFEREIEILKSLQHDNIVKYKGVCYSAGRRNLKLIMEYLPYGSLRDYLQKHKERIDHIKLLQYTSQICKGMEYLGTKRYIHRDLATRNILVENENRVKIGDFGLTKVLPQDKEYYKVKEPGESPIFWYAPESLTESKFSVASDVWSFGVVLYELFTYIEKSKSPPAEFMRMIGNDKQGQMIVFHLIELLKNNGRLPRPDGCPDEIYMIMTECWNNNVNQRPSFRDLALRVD
measurementKind: IC50

1. C=CC(=O)Nc1ccc(Sc2ccnc(Nc3ccc(N4CCS(=O)(=O)CC4)cc3)n2)cc1 [Compound 99] :: > 1 µM
2. C=CC(=O)Nc1cccc(Nc2nccc(Sc3ccc(OC)cc3)n2)c1 [Compound 42] :: > 1 µM
3. C=CC(=O)Nc1ccc(Sc2ccnc(Nc3ccc(N4CCC(N5CCCC5)CC4)cc3)n2)cc1 [Compound 87] :: > 1 µM
4. N#CCc1ccc(Sc2ccnc(Nc3ccc(N4CCOCC4)cc3)n2)cc1 [Compound 210] :: > 1 µM
5. Nc1ccc(Sc2nc(Nc3ccc(N4CCOCC4)cc3)ncc2F)cc1 [Compound 263] :: > 1 µM
6. C=CC(=O)Nc1ccc(Sc2nc(Nc3cccc(N4CCOCC4)c3)ncc2F)cc1 [Compound 267] :: > 1 µM

[ask] What does the record list as IC50 for Cc1cnc(Nc2cccc(N3CCN(C)CC3)c2)nc1Sc1ccc(N)cc1 [Compound 245] ?
[reply] < 0.5 µM

[ask] So what does the record say about IC50 for C=CC(=O)Nc1ccc(Sc2ccnc(Nc3cccc(N4CCOCC4)c3)n2)cc1 [Compound 77] ?
[reply] > 1 µM

[ask] I am curious: what IC50 value has been reported for N#Cc1ncn(Cc2ccc(Sc3ccnc(Nc4ccc(N5CCOCC5)cc4)n3)cc2)c1N [Compound 202] ?
[reply] < 1 µM

[ask] Name the reported IC50 value associated with the compound C=CC(=O)Nc1ccc(Sc2nc(Nc3ccc(OCCCN(CC)CC)cc3)ncc2C)cc1 [Compound 291]
[reply] > 1 µM

[ask] Dear colleague, I am looking for the recorded IC50 of the following compound: C=CC(=O)Nc1ccc(Sc2nc(Nc3ccc(N4CCOCC4)cc3)ncc2C)c(C)c1 [Compound 163]
[reply] > 1 µM

====

# testedOn: BaF3 TELJAK3 cells (Homo sapiens, UniProt P52333)
# Construct: fused on or other part: TEL (ETV6) N-terminal part, coding nucleotides 1-487, serves as the oligomerising partner; It is fused through a Sal I site to the JAK3 kinase domain and expressed from pTRE2 in BaF3 cells bearing pTET-off; P41212 (Transcription factor ETV6)
# Sequence (P52333 whole entry, change not shown, the tested form may be a part): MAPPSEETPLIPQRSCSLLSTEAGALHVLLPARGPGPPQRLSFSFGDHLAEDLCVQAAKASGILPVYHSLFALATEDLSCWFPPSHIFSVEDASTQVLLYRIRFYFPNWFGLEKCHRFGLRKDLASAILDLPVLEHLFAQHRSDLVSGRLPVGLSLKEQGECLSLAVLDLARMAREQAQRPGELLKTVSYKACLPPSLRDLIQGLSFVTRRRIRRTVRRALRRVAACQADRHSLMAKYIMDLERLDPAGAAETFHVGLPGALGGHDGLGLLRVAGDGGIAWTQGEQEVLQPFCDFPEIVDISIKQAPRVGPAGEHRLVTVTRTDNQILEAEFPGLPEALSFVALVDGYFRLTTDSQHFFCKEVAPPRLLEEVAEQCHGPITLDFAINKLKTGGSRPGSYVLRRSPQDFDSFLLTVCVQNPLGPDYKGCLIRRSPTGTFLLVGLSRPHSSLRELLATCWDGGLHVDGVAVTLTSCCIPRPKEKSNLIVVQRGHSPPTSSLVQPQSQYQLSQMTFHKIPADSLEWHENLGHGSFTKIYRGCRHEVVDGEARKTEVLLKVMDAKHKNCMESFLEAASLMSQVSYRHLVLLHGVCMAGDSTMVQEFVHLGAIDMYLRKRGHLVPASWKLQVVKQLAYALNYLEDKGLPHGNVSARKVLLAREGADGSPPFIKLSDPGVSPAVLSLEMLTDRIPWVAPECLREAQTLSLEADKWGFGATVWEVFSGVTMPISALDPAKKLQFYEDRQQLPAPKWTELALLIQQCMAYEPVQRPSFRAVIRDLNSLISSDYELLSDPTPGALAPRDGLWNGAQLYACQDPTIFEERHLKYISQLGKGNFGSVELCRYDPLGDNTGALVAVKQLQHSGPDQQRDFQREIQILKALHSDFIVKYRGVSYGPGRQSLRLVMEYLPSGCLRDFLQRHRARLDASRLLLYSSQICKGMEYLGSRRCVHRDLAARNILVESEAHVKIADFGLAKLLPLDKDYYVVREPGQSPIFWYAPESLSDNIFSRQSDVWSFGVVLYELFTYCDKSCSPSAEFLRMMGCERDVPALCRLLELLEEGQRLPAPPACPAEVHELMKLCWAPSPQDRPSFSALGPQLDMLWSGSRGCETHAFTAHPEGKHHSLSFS
# measurementDescription: Cellular screening, BaF3 TEL:JAK3 cells, Alamar Blue
# Format: cell-based
# reportedConditions: 40 hr, read-out: BafT_J3 IC50_nM
measurementKind: GI50

Example results:
1) C=CC(=O)Nc1ccc(Sc2ccnc(Nc3ccc(S(=O)(=O)NCc4ccccc4)cc3)n2)cc1 [Compound 368] :: < 5 µM
2) c1cc(Sc2ccc(Cn3cncn3)cc2)nc(Nc2ccc(N3CCOCC3)cc2)n1 [Compound 204] :: < 20 µM
3) Cc1cnc(Nc2ccc(N3CCOCC3)cc2)nc1Sc1ccc(N2C(=O)CSCC2=O)cc1 [Compound 231] :: < 20 µM
4) C=CC(=O)Nc1ccc(Sc2nc(Nc3ccc(N4CCOCC4)cc3)ncc2C)cc1CC [Compound 260] :: < 5 µM

Next molecule, please.
[ask] # get_value(readout='GI50', item= Cc1cnc(Nc2ccc(N3CCN(C)CC3)cc2)nc1Sc1ccc(N)cc1 [Compound 244] )
[reply] < 5 µM

====

Below, each entry is listed with its recorded pIC50.
# Test system: BaF3 wild-type cells
# measurementDescription: Cellular screening, BaF3 wild-type cells, Alamar Blue
# Type: cell-based
# reportedConditions: Mus musculus, 40 hr, read-out: BAF3wt IC50_nM
pIC50: −log10 of the molar value.

1. Cc1cnc(Nc2cccc(S)c2)nc1Sc1ccc(NC(=O)CCl)cc1 [Compound 195] :: < 4.70
2. C=CC(=O)Nc1ccc(Sc2ccnc(Nc3ccc(O)cc3)n2)cc1 [Compound 276] :: > 4.70
3. Cc1cnc(Nc2ccc(N3CCOCC3)cc2)nc1Sc1ccc(NC(=O)/C=C\C(=O)O)cc1 [Compound 380] :: < 4.70
4. C=CC(=O)Nc1ccc(Sc2nc(Nc3cccc(NS(C)(=O)=O)c3)ncc2C)cc1 [Compound 288] :: > 4.70
5. c1cn(Cc2ccc(Sc3ccnc(Nc4ccc(N5CCOCC5)cc4)n3)cc2)cn1 [Compound 127] :: < 4.70

[ask] Endpoint output: pIC50 of CCOC(=O)/C=C\C(=O)Nc1ccc(Sc2nc(Nc3ccc(N4CCOCC4)cc3)ncc2C)cc1 [Compound 388] . Value?
[reply] > 5.30

[ask] I would be grateful if you could share the reported pIC50 for N#CCC(=O)Nc1cccc(Sc2ccnc(Nc3ccc(N4CCOCC4)cc3)n2)c1 [Compound 24] .
[reply] > 4.70

[ask] Can you look up the measured pIC50 of C=CC(=O)Nc1ccc(Sc2nc(Nc3ccc(O)cc3)ncc2C)cc1 [Compound 282] for me?
[reply] > 4.70

[ask] Please look up its pIC50: C=CC(=O)Nc1ccc(Sc2ccnc(Nc3ccc(N4CCOCC4)cc3)n2)cc1OC [Compound 123]
[reply] > 5.30

[ask] Given the entry Cc1cnc(Nc2ccc(N3CCOCC3)cc2)nc1Sc1ccc(N2C(=O)C=C(Br)C2=O)cc1 [Compound 382] , report its measured pIC50.
[reply] > 4.70

[ask] // lookup pIC50 for N#Cc1c(N)ncn1Cc1ccc(Sc2ccnc(Nc3ccc(N4CCOCC4)cc3)n2)cc1 [Compound 203]
[reply] > 6.00

====

# testedOn: KDR(h) (Homo sapiens, UniProt P35968)
# Construct: purchased Upstate Biotechnology (Dundee, UK), KinaseProfiler service
# Sequence (P35968 20-1356): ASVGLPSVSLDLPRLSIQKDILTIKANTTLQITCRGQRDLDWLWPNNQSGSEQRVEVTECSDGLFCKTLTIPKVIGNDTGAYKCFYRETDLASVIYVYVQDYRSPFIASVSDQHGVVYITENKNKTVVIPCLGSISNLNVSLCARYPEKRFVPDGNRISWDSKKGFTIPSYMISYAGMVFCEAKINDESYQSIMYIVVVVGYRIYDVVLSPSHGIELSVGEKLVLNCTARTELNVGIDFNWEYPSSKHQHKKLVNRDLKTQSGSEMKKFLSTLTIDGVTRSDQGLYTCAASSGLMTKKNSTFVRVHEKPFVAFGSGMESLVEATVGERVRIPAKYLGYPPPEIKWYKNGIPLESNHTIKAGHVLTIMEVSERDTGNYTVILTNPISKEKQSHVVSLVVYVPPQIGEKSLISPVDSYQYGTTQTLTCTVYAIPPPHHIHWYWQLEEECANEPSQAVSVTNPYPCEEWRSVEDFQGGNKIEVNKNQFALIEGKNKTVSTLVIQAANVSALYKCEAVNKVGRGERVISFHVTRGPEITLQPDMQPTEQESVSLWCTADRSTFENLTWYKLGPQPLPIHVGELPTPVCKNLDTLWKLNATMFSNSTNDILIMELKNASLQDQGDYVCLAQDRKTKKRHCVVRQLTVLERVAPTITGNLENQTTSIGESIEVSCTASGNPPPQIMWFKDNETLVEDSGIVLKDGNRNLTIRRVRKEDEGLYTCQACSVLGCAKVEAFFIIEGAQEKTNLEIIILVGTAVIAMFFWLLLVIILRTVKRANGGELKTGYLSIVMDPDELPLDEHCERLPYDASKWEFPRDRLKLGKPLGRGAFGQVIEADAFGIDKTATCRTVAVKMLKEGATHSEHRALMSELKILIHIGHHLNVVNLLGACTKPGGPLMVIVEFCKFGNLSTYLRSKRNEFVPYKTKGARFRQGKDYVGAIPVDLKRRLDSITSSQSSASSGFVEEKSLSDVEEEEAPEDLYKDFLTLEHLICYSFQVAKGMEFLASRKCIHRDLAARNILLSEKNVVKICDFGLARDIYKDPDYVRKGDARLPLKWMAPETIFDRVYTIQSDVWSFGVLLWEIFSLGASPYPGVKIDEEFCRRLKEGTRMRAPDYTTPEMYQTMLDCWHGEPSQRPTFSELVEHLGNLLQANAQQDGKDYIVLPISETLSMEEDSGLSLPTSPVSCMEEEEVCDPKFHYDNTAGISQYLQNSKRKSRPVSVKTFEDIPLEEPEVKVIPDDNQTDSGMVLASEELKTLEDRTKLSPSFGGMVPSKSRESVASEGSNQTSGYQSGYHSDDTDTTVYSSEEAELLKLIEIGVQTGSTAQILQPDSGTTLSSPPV
# measurementDescription: Upstate KinaseProfiler enzyme assay, KDR
# Assay type: biochemical
# reportedConditions: 500 nM compound; read-out: Percent inhibition at 500 nM KDR(h)
Reported inhibition at 0.5 µM values for the following compounds.
Provide the reading as a plain figure in %.

Consider the reported inhibition at 0.5 µM for these compounds:
1. C=CC(=O)Nc1cccc(Nc2nccc(Sc3ccc(OC)cc3)n2)c1 :: 100
2. Cc1cnc(Nc2ccc(N3CCOCC3)cc2)nc1Sc1c(C)cc(N)cc1C :: 86
3. Cc1cnc(Nc2ccc(N3CCOCC3)cc2)nc1Sc1ccc(N)cc1 :: 95

[ask] Recorded inhibition at 0.5 µM of C=CC(=O)Nc1cccc(Sc2ccnc(Nc3ccc(OC)cc3)n2)c1 , please.
[reply] 100

[ask] What does the record list as inhibition at 0.5 µM for C=CC(=O)Nc1ccc(Sc2nc(Nc3ccc(N4CCN(C)CC4)cc3)ncc2C)cc1 ?
[reply] 96

[ask] Need inhibition at 0.5 µM of C=CC(=O)Nc1ccc(Sc2nc(Nc3ccc(N4CCOCC4)c(OC)c3)ncc2C)cc1 , thanks.
[reply] 95

[ask] Form field: reported inhibition at 0.5 µM of C=CC(=O)Nc1ccc(Sc2ccnc(Nc3ccc(N4CCOCC4)cc3)n2)c(Cl)c1C
[reply] 100

[ask] Look at this compound and give its reported inhibition at 0.5 µM. Cc1cnc(Nc2ccc(N3CCOCC3)cc2)nc1Sc1ccc(N2C(=O)CSCC2=O)cc1
[reply] 99

[ask] Quick one: inhibition at 0.5 µM for C=CC(=O)Nc1ccc(Sc2nc(Nc3ccc(N4CCOCC4)cc3)ncc2-c2ccccc2)cc1 ?
[reply] 72

[ask] Quick one: inhibition at 0.5 µM for N#Cc1ncn(Cc2ccc(Sc3ccnc(Nc4ccc(N5CCOCC5)cc4)n3)cc2)c1C#N ?
[reply] 100

====

# Test system: BaF3 wild-type cells
# measurementDescription: Cellular screening, BaF3 wild-type cells, Alamar Blue
# Type: cell-based
# reportedConditions: Mus musculus, 40 hr, read-out: BAF3wt IC50_nM
# Procedure: For screening purposes, compounds were diluted in 96 well plates at a concentration of 20 μM. Plates were warmed at 37° C. for 30 minutes before the assay was performed. […] Compounds to be tested were added (10 μL, 10× final concentration) to a flat bottomed 96-well plate. […] The plates were then read at 544 nm.
pIC50: −log10 of the molar value.
measurementKind: pIC50

1. C=CC(=O)Nc1ccc(Sc2ccnc(Nc3ccc(S(=O)(=O)N4CCOCC4)cc3)n2)cc1 [Compound 367] :: > 4.70
2. C=CC(=O)Nc1ccc(Sc2ccnc(Nc3ccccc3O)n2)cc1 [Compound 279] :: > 4.70
3. C=CC(=O)Nc1cccc(Sc2ccnc(Nc3cccc(N4CCOCC4)c3)n2)c1 [Compound 110] :: > 4.70
4. Cc1cnc(Nc2ccc(N3CCOCC3)cc2)nc1Sc1cccc(CO)c1 [Compound 212] :: < 4.70
5. C=CC(=O)Nc1ccc(Sc2nc(Nc3ccc(N4CCOCC4)cc3)ncc2C)c(C)c1 [Compound 163] :: < 4.70

Okay, now this molecule:
[ask] // lookup pIC50 for Cc1cnc(Nc2ccc(N3CCOCC3)cc2)nc1Sc1ccc(NC(=O)CCC(=O)O)cc1 [Compound 383]
[reply] > 4.70

The origin of these recorded values is patent US8846704B2.
